assay: Film formation test; format: physicochemical; conditions: 15% by weight solution in water, dried at 45° C. for 4 hours, assessed visually
Experimental readout: Notes (film-forming classification)

Name the reported Notes (film-forming classification) value associated with the compound OC[C@@H](O)[C@@H](O[C@H]1O[C@H](CO)[C@@H](O)[C@H](O)[C@H]1O)[C@H](O)[C@@H](O)CO [Maltitol]
Film-forming

Another: OC[C@@H](O)[C@@H](O)[C@H](O)[C@@H](O)CO [Sorbitol]
Film-forming

Another: OC[C@@H](O)[C@@H](O[C@@H]1O[C@H](CO)[C@H](O)[C@H](O)[C@H]1O)[C@H](O)[C@@H](O)CO [Lactitol]
Film-forming
